These data points were gathered from patent US12152049B2.

test system: THP1-Dual cells; assay: Effects on THP1-Dual cells: activation of the IRF pathway (Quanti-luc luminescence); assay type: cell-based; conditions: Homo sapiens, incubation about 24 hours
pEC50: −log10 of the molar value. Structures can show the parent of a compound that is named as a salt.
endpoint.label: pEC50

[
  {
    "compound": "CNC(=O)c1cc(-c2ncc(-c3cn[nH]c3)c3onc(N)c23)ccc1N [Example 4(15), hydrochloride]",
    "target.desc": "THP1-Dual cells",
    "value": 7.00
  },
  {
    "compound": "CSc1cc(-c2ncc(-c3cn[nH]c3)c3onc(N)c23)c(F)cc1N [Example 4, hydrochloride]",
    "target.desc": "THP1-Dual cells",
    "value": 7.05
  },
  {
    "compound": "COC(=O)c1cc(-c2ncc(-c3cn[nH]c3)c3onc(N)c23)c(F)cc1N",
    "target.desc": "THP1-Dual cells",
    "value": 6.74
  },
  {
    "compound": "CCC(=O)c1cc(-c2ncc(-c3cn[nH]c3)c3onc(N)c23)c(F)cc1N [Example 4(7), hydrochloride]",
    "target.desc": "THP1-Dual cells",
    "value": 7.70
  },
  {
    "compound": "CCNC(=O)c1cc(-c2ncc(-c3cn[nH]c3)c3onc(N)c23)c(F)cc1N [Example 4(8), hydrochloride]",
    "target.desc": "THP1-Dual cells",
    "value": 7.70
  },
  {
    "compound": "CC(=O)c1cc(-c2ncc(-c3cn[nH]c3)c3onc(N)c23)ccc1N [Example 4(9), hydrochloride]",
    "target.desc": "THP1-Dual cells",
    "value": 6.89
  }
]

[1] CCOC(=O)c1cc(-c2ncc(-c3cn[nH]c3)c3onc(N)c23)c(F)cc1N [Example 4(6), hydrochloride]
[2] CSc1cc(-c2ncc(-c3cn[nH]c3)c3onc(N)c23)c(Cl)cc1N [Example 4(16), hydrochloride]
[3] COc1cc(-c2ncc(-c3cn[nH]c3)c3onc(N)c23)c(F)cc1N [Example 2, hydrochloride]
[4] NC(=O)c1cc(-c2ncc(-c3cn[nH]c3)c3onc(N)c23)c(F)cc1N [Example 4(5), hydrochloride]
Ask | Put the items in sequence by pEC50, from largest down. Return the labels ranked in the requested order, please.
Reply | 1, 4, 2, 3
(1: 7.40, 4: 7.10, 2: 6.00, 3: 5.71)

[P] CS(=O)(=O)c1cc(-c2ncc(-c3cn[nH]c3)c3onc(N)c23)c(F)cc1N [Example 4(3), hydrochloride]
[Q] CC(=O)c1cc(-c2ncc(-c3cn[nH]c3)c3onc(N)c23)c(F)cc1N
Ask | Lab note: check whether P or Q has the lower measured pEC50. Bench note: the answer is the label of the chosen record.
Reply | P
